Conditions: in n-propanol, 303.15 K
MEASURED_ATTRIBUTE: solubility (mole fraction)
// keep it numeric: no unit symbol after the value

(Q) So what does the record say about solubility (mole fraction) for CC(CO)(CO)C(=O)O ?
(A) 0.0111

* * *

Conditions: in sec-butanol, 303.15 K
MEASURED_ATTRIBUTE: solubility (mole fraction)
// keep it numeric: no unit symbol after the value

(Q) So what does the record say about solubility (mole fraction) for CC(CO)(CO)C(=O)O ?
(A) 0.0112

* * *

Conditions: in ethyl acetate, 288.15 K
MEASURED_ATTRIBUTE: solubility (mole fraction)
// keep it numeric: no unit symbol after the value

(Q) So what does the record say about solubility (mole fraction) for CC(CO)(CO)C(=O)O ?
(A) 0.00042
